From: PubChem BioAssay (NCATS)

Assay: qHTS of pediatric cancer cell lines to identify multiple opportunities for drug repurposing: Primary screen for Rh18 cells (AID 1347102); also: nearly all actives have a fitted effect of over 65% in size
Conditions: Rh18 rhabdomyosarcoma viability, CellTiter-Glo luminescence, 48 h; series mostly up to 46 µM
Results filed as inconclusive are left out. Active and inactive are the calls of the source. Calls follow the shape of the dose curve; as a rule, active = well fitted cell-killing curve with a large enough effect; inconclusive = small, poorly fitted or top-dose-only effect; inactive = flat fitted curve, though single readings scatter.
Pick from active, inactive when you respond.

Worked examples follow.
>  <Compound>
C=C(C)C(=O)OCC(O)CO (configuration not stated)

>  <Category Label>
inactive

$$$$
>  <Compound>
CCCCCCCCCCCCCCCC[N+](C)(C)Cc1ccccc1

>  <Category Label>
active

$$$$
>  <Compound>
C#CC(C)(CC)OC(=O)c1ccccc1C(=O)O (configuration not stated)

>  <Category Label>
inactive

$$$$
>  <Compound>
Nc1c[n+](N2CCOCC2)no1

>  <Category Label>
inactive

$$$$
>  <Compound>
Cc1ccccc1C(=O)N1CC/C(=N\OS(=O)(=O)O)c2ccc(Cl)cc21

>  <Category Label>
inactive

$$$$

Exercise: Field: outcome | Entry: CC(C)(C)c1nnc(NS(=O)(=O)c2ccccc2)s1
Key: inactive

Exercise: Field: outcome | Entry: COc1cc2nc(Cl)nc(N)c2cc1OC
Key: inactive

---

Experiment: qHTS of pediatric cancer cell lines to identify multiple opportunities for drug repurposing: Primary screen for NB1643 cells (AID 1347099);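 also: plate controls were DMSO neutral control for no effect and bortezomib positive control for full effect; nearly all actives have a fitted effect of over 50% in size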
Details: NB1643 neuroblastoma viability, CellTiter-Glo luminescence, 48 h; series mostly up to 46 µM
Inconclusive results are not listed. Active and inactive are the calls of the source. Calls come from the whole dose curve; as a rule, active = well fitted cell-killing curve with a large enough effect; inconclusive = small, poorly fitted or top-dose-only effect; inactive = no such curve, though single readings can be large or run the other way.
Pick from active, inactive when you respond.

>  <Compound>
COc1cc2nc(Cl)nc(N)c2cc1OC

>  <Category Label>
inactive

$$$$
>  <Compound>
CN1Cc2cc(C(=O)N3CCC(C4CCNCC4)CC3)ccc2N[C@@H](CC(=O)O)C1=O

>  <Category Label>
inactive

$$$$
>  <Compound>
O=C(O)CCCC[C@@H]1SC[C@@H]2NC(=O)N[C@@H]21

>  <Category Label>
inactive

$$$$
>  <Compound>
CC(=O)O[C@@H]1CC2C3CCc4cc(OC(=O)c5ccccc5)ccc4C3CCC2(C)[C@H]1OC(C)=O (some centres undefined)

>  <Category Label>
inactive

$$$$
>  <Compound>
CCCC(CCC)(C(=O)OCC)C(=O)OCC

>  <Category Label>
inactive

$$$$

Exercise: Field: outcome | Entry: C=CCNc1nc(NCC=C)nc(N2CCN(C(c3ccc(F)cc3)c3ccc(F)cc3)CC2)n1
Key: inactive

Exercise: Field: outcome | Entry: COc1ccc(CCC(C)=O)cc1
Key: inactive

Exercise: Field: outcome | Entry: CC(C)(Oc1ccc(Cl)cc1)C(=O)OCCCOC(=O)C(C)(C)Oc1ccc(Cl)cc1
Key: inactive

---

Test system: KB-3-1
Assay: Cytotoxic Profiling of Annotated Libraries Using Quantitative High-Throughput Screening (AID 1296008); also: % is scaled to controls: 0 for no effect and ±100 for the full control effect; nearly all actives have a fitted effect of over 60% in size
Conditions: Five cell lines viability, CellTiter-Glo ATP luminescence, 48-72 h; stronger effect = lower value
Inconclusive results are not listed.
Recorded Metric: max response (%)
State just the number; it will be interpreted in %.

Recorded results for 3 molecules are shown here.
>  <Molecule>
CCC(C(=O)NC(=O)NC(C)=O)c1ccccc1 (stereo not given)

>  <Unit String>
%

>  <max response>
0.82

$$$$
>  <Molecule>
NC(N)=NCCCCN=C(N)N

>  <Unit String>
%

>  <max response>
-9.65

$$$$
>  <Molecule>
CCO[C@H](Cc1ccc(OCCc2ccc(OS(C)(=O)=O)cc2)cc1)C(=O)O

>  <Unit String>
%

>  <max response>
-10.5

$$$$

Exercise: State the recorded max response for this entry: CO/N=C(/C(=O)N[C@@H]1C(=O)N2C(C(=O)OCOC(=O)C(C)(C)C)=C(C)CS[C@H]12)c1csc(N)n1
Key: -4.57

Exercise: State the recorded max response for this entry: CC(=O)N(CC(O)CO)c1c(I)c(C(=O)NCCO)c(I)c(C(=O)NCC(O)CO)c1I (stereo not given)
Key: -13
